# literature pull: Urokinase-type plasminogen activator (Homo sapiens) Ki
One number for each entry, in µM.

COMPOUND	ASSAYED SYSTEM	UNIT OF MEASUREMENT	Ki
CC1CCN(C(=O)C(Cc2cccc(C(=N)N)c2)NS(=O)(=O)c2c(C(C)C)cc(C(C)C)cc2C(C)C)CC1 (centres undefined)	Urokinase-type plasminogen activator (Homo sapiens)	µM	2
N=C(N)c1cc2c(OC(COC(=O)Nc3c(F)cccc3F)c3ccccc3)cccc2s1 (centres undefined)	Urokinase-type plasminogen activator (Homo sapiens)	µM	0.249
N=C(N)c1cccc(C[C@H](NS(=O)(=O)c2cccc(NC(=O)CCN)c2)C(=O)N2CCC(CCN=C(N)N)CC2)c1	Urokinase-type plasminogen activator (Homo sapiens)	µM	1.7

stdin: Param readout = Ki; param system = Urokinase-type plasminogen activator (Homo sapiens); param query = `CS(=O)(=O)c1ccccc1-c1ccc(NC(=O)c2cc(C(F)(F)F)nn2-c2ccc3onc(N)c3c2)c(F)c1` ; response: value
stdout: 16
